Let's look at some compounds and their measured Vd/F.
Test: Pharmacokinetic study in rats after oral administration of cinobufacini capsule (UPLC-MS/MS of plasma)
Format: in vivo, rat
Settings: male, Sprague-Dawley, in vivo; rat plasma, oral cinobufacini capsule 1.8 g/kg (medium), mean ± SD, n = 6; read-out: Vz/F
Text: Male Sprague–Dawley rats (weighing 200–220 g) of SPF grade were offered by Sippr/BK laboratory Animal, Corp., Ltd. (Shanghai, China) and fed in the Laboratory Animal Center of the Shanghai University of Traditional Chinese Medicine. […] An Agilent 1290 Infinity series UPLC system was combined with an Agilent 6460 series triple quadrupole mass spectrometer (Agilent Technologies, Santa Clara, CA, United States) to quantify all 13 analytes in an ESI-positive ionization mode. […]
property-measured: Vd/F (L/kg)

• C[C@]12CC[C@H]3[C@@H](CC[C@]4(O)C[C@@H](O)CC[C@]34C=O)[C@@]1(O)CC[C@@H]2c1ccc(=O)oc1 [HBG, hellebrigenin] = 11.1
• C[C@]12CC[C@H](O)C[C@H]1CC[C@@H]1[C@@H]2CC[C@]2(C)[C@@H](c3ccc(=O)oc3)CC[C@]12O [BF, bufalin] = 2.15
• C[C@]12CC[C@H](O)C[C@@]1(O)CC[C@@H]1[C@@H]2CC[C@]2(C)[C@@H](c3ccc(=O)oc3)CC[C@]12O [TCG, telocinobufagin] = 1.13
• C[C@]12CC[C@H](O)C[C@H]1CC[C@@H]1[C@@H]2CC[C@]2(C)[C@@H](c3ccc(=O)oc3)[C@@H](O)[C@H]3O[C@]132 [DCG, desacetylcinobufagin] = 5.62
• C[C@]12CC[C@H](O)C[C@@]1(O)CC[C@@H]1[C@@H]2CC[C@]2(C)[C@@H](c3ccc(=O)oc3)[C@@H](O)[C@H]3O[C@]132 [DCT, desacetylcinobufotalin] = 8.27

====

assay: Stability of analytes in rat plasma QC samples under storage conditions; assay type: physicochemical; conditions: post-treatment storage in autosampler; medium QC level (49.92–50.06 ng/ml), n = 6
Let's look at some molecules and their measured Stability during 24 h at 4°C, RE.
property-measured: Stability during 24 h at 4°C, RE (%)

* C[C@]12CC[C@H](O)C[C@H]1CC[C@@H]1[C@@H]2CC[C@]2(C)[C@@H](c3ccc(=O)oc3)C[C@H]3O[C@]132 | 3.5
* CC(=O)O[C@H]1C[C@]2(O)[C@@H]3CC[C@@H]4C[C@@H](O)CC[C@]4(C)[C@H]3CC[C@]2(C)[C@H]1c1ccc(=O)oc1 | 5.0
* C[C@]12CC[C@H](O)C[C@@]1(O)CC[C@@H]1[C@@H]2CC[C@]2(C)[C@@H](c3ccc(=O)oc3)CC[C@]12O | −4.2
* C[C@]12CC[C@H](O)C[C@H]1CC[C@@H]1[C@@H]2CC[C@]2(C)[C@@H](c3ccc(=O)oc3)[C@@H](O)[C@H]3O[C@]132 | 6.7
* C[C@]12CC[C@H](O)C[C@H]1CC[C@@H]1[C@@H]2C(=O)[C@@H](O)[C@]2(C)[C@@H](c3ccc(=O)oc3)CC[C@]12O | 12.0

====

experiment: Pharmacokinetic study in rats after oral administration of cinobufacini capsule (UPLC-MS/MS of plasma); assay type: in vivo, rat; details: male, Sprague-Dawley, in vivo; rat plasma, oral cinobufacini capsule 3.6 g/kg (high), mean ± SD, n = 6
If the reported Tmax equals or exceeds 20 min, assign YES. If not, assign NO.

- C[C@]12CC[C@H]3[C@@H](CC[C@]4(O)C[C@@H](O)CC[C@]34C=O)[C@@]1(O)CC[C@@H]2c1ccc(=O)oc1: YES
- C[C@]12CC[C@H](O)C[C@H]1CC[C@@H]1[C@@H]2CC[C@]2(C)[C@@H](c3ccc(=O)oc3)[C@@H](O)[C@H]3O[C@]132: YES
- C[C@]12CC[C@H](O)C[C@H]1CC[C@@H]1[C@@H]2[C@H](O)C[C@]2(C)[C@@H](c3ccc(=O)oc3)CC[C@]12O: YES
- C[C@]12CC[C@H](O)C[C@@]1(O)CC[C@@H]1[C@@H]2CC[C@]2(C)[C@@H](c3ccc(=O)oc3)[C@@H](O)[C@H]3O[C@]132: YES
- C[C@]12CC[C@H](O)C[C@H]1CC[C@@H]1[C@@H]2CC[C@]2(C)[C@@H](c3ccc(=O)oc3)CC[C@]12O: YES
- C[C@]12CC[C@H](O)C[C@@]1(O)CC[C@@H]1[C@@H]2CC[C@]2(C)[C@@H](c3ccc(=O)oc3)CC[C@]12O: NO
- C[C@]12CC[C@H](O)C[C@H]1CC[C@@H]1[C@@H]2C(=O)[C@@H](O)[C@]2(C)[C@@H](c3ccc(=O)oc3)CC[C@]12O: NO
- C[C@]12CC[C@H](O)C[C@H]1CC[C@@H]1[C@@H]2[C@H](O)C(=O)[C@]2(C)[C@@H](c3ccc(=O)oc3)CC[C@]12O: NO
